All values here come from paper PMC6496074.

# study.system: CaCYP51 G307S+G450E (Candida albicans, UniProt P10613, G307S/G450E)
# Construct: made in house; host or cells: E. coli DH5α (pCWori+)
# measurement.protocol: CYP51 reconstitution assay
# Format: biochemical
# condition.label: 0.25 h, 4 μM triazole, % of activity without triazole, read-out: Residual CYP51 activity (%) ± SD
remaining activity at 4 µM reference
Enter your answer as a number in %; do not include the unit.

Worked examples, 3 compounds total:
Prompt: Name the reported remaining activity at 4 µM value associated with the compound CCC(C)n1ncn(-c2ccc(N3CCN(c4ccc(OCC5COC(Cn6cncn6)(c6ccc(Cl)cc6Cl)O5)cc4)CC3)cc2)c1=O (stereo not shown)
Completion: 0.2

Prompt: // query: CC[C@@H]([C@H](C)O)n1ncn(-c2ccc(N3CCN(c4ccc(OC[C@@H]5CO[C@@](Cn6cncn6)(c6ccc(F)cc6F)C5)cc4)CC3)cc2)c1=O
Completion: 0.26

Prompt: Now try C[C@@H](c1ncncc1F)[C@](O)(Cn1cncn1)c1ccc(F)cc1F .
Completion: 0.41

Others:
Prompt: # query: remaining activity at 4 µM of entry OC(Cn1cncn1)(Cn1cncn1)c1ccc(F)cc1F
Completion: 56.8
